Target: T1, S15-extra cellular domain (ECD) monomer (human, UniProt Q6ZMC9 20-263)
T1 construct: also called S15 monomer protein
T1 sequence: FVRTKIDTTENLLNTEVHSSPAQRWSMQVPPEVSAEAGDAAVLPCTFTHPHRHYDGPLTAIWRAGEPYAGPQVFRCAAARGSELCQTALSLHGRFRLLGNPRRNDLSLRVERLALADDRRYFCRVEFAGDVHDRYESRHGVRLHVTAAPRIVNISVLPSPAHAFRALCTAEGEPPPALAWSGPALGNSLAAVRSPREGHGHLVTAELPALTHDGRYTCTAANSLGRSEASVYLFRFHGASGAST
Assay: BLI (Octet RED96), mAb on anti-human Fc sensors, S15-ECD monomer in solution, global fit
reported metric: koff (s⁻¹)
Numeric answer only, unit s⁻¹ assumed.

Below are worked cases with known answers.
10G9 (antibody, V domains shown, Mouse anti-human Siglec-15 mAb) VH: EVQLLETGGGLVQPGGSRGLSCEGSGFTFSDFWMSWVRQTPGKTLEWIGDINSDGSAVNYAPSIKDQFTIFRDNDKRTLHLQMINVRSEDTATYFCVRYDDYGYFDVWGTGTTVTVSS VL: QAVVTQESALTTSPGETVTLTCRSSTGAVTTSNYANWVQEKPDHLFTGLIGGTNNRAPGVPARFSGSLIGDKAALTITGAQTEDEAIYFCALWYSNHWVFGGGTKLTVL    0.000152
6A (antibody, V domains shown, Mouse anti-human Siglec-15 mAb; also called NC6) VH: EVQLQQSGAELVRPGASVKLSCTASGFNIKDDYMHWVKQRPEQGLEWIGCIDPENGDTEYASKFQDKATITTDTSSNTAYLQLSSLTSEDTAVYYCTTYVGFAYWGQGTLVTVST VL: DVLMTQTPLSLPVSLGDQASISCRSSQSIVHSNGNTYLEWYLQKPGQSPKLLIYKVSNRFSGVPDRFSGSGSGTDFTLRISRVEAEDLGVYYCFQGSHVPLTFGAGTKLELK    0.000211

--- query ---
Reported koff ( 105A (antibody, V domains shown, Mouse anti-human Siglec-15 mAb; also called NC105) VH: EVQLQQSGAELVRPGASVKLSCTASGFNIKDDYMHWVKQRPEQGLEWIGCIDPENGDIEYASRFQGKATMTADTSSNTAYLQLTSLTSADTAVYYCTTYVGFGYWGQGTLVTVSA VL: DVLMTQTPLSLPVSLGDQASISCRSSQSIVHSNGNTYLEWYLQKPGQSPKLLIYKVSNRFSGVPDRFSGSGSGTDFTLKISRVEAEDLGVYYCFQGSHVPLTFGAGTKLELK ) = 0.000102
